- Target Or Test System: human DLL3 protein expressed on CHO-K1 recombinant cells (human DLL3 extracellular segment fused to EpCAM transmembrane and intracellular regions) (human) (UniProt Q9NYJ7)
- Sequence (Q9NYJ7 other isoform, or with tags, fused parts or gaps limits assumed): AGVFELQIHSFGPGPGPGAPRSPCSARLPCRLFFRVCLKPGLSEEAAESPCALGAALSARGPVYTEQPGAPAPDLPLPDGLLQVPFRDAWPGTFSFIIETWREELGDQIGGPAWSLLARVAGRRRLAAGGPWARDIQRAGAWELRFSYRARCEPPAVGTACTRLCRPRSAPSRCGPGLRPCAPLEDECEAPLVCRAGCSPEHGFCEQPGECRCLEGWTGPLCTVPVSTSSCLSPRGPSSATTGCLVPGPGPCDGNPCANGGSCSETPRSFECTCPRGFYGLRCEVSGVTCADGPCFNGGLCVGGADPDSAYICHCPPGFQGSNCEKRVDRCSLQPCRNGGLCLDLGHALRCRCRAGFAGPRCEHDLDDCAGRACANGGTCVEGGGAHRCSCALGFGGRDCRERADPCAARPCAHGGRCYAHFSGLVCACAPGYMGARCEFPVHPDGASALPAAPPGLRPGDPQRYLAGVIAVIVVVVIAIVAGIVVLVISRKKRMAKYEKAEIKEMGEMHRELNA
- Method Description: FACS, CHO-K1 hDLL3 cells, 0.00128 nM antibody
Assay Metric: MFI (MFI)
Give the number; MFI is assumed, so skip it.

# annotated cases, reported MFI shown
- Binder: "Hab015VL4VH1a-hFc (scFv, part only; not given: scFv linker and human IgG1 Fc, V domains shown, not shown: another chain or arm of the molecule; a dimerising Fc or GST; small tags and cut ends) VL: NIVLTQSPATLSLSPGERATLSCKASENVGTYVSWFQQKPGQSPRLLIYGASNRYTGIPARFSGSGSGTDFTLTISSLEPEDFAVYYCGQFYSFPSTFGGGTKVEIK VH: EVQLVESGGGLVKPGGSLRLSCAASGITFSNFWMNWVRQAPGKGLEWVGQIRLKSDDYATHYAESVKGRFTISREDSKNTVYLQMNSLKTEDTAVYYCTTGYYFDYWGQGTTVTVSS"
  Unit: "MFI"
  MFI: 122
- Binder: "Hab013VL2VH2a-hFc (scFv, part only; not given: scFv linker and human IgG1 Fc, V domains shown, not shown: another chain or arm of the molecule; a dimerising Fc or GST; small tags and cut ends) VL: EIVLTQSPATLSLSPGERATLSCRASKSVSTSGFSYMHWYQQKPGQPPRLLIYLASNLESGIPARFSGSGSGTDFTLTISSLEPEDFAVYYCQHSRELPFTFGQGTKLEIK VH: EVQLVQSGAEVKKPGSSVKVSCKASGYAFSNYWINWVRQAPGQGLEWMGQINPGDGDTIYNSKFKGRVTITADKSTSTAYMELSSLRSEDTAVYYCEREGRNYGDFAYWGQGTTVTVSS"
  Unit: "MFI"
  MFI: 164

Turning now to a further binder:
Prompt line: Fill blank: measured MFI of the binder Hab006VL1VH4-hFc (scFv, part only; not given: VL-VH linker and human IgG1 Fc, V domains shown, not shown: another chain or arm of the molecule; a dimerising Fc or GST; small tags and cut ends) VL: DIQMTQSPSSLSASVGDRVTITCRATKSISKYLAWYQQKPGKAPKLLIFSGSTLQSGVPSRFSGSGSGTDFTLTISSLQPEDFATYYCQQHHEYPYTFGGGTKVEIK VH: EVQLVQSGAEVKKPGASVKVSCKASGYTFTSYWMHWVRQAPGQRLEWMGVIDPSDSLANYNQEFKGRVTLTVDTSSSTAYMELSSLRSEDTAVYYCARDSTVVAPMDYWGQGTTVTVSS is ____.
Response line: 419
